Catalogue of compounds with associated TGI
Test system: HCT-15 colon
Test: NCI tumour cell line growth inhibition, 48 h

Entry C=Cc1cc(OC)c2c(c1)c(=O)oc1c2cc(OC)c2c(O)ccc(C3OC(C)C(O)C(C)(O)C3O)c21 (stereo unspecified) ; TGI = 0.467 µM

# evaluate next
Entry Cc1ccc2ccc3ccc(C)nc3c2n1 ; TGI = > 100 µM

* * *

Catalogue of molecules with associated TGI
Tested on: CCRF-CEM leukemia
Assay: NCI tumour cell line growth inhibition, 48 h
Please state the figure in µM; there is no need to write the unit.

// returns TGI for CCN(CC)CCCCNc1ncc2cc(-c3cc(OC)cc(OC)c3)c(NC(=O)NC(C)(C)C)nc2n1 with CCRF-CEM leukemia; value = 66.1

# evaluate next
// returns TGI for CC1=CC(=O)[C@@H](O)[C@]2(C)[C@H]3[C@@]4(O)OC[C@@]35[C@@H](C[C@@H]12)OC(=O)C(OC(=O)CC1=CCCC1)[C@H]5[C@@H](C)[C@H]4O (stereo not given in full) with CCRF-CEM leukemia; value = 0.136

From: PubChem BioAssay (NCI)
